# assay.remarks: Oral absorbability: plasma concentration of Compound 1a (B^1 = 9-guanyl) in mice after oral or intravenous administration (Method 4)
# Assay type: in vivo
# condition.set: Compound 1a (B^1 = 9-guanyl) in plasma, male CDF1 mice, 75 μM/kg oral
Reported values of AUC, oral administration for individual entries
// units = ng·h/mL; emit number, no label

| smiles.structure | readout.unit | AUC, oral administration |
| --- | --- | --- |
| Nc1nc2c(ncn2[C@@H]2C[C@H](CO)[C@H]2COP(=O)(O)Oc2ccccc2)c(=O)[nH]1 | ng·h/mL | 1122 |
| COc1ccc(OP(=O)(O)OC[C@H]2C[C@@H](n3cnc4c(=O)[nH]c(N)nc43)[C@@H]2CO)cc1 | ng·h/mL | 1678 |
| Nc1nc2c(ncn2[C@@H]2C[C@H](COP(=O)(O)Oc3ccccc3Cl)[C@H]2CO)c(=O)[nH]1 | ng·h/mL | 1526 |
| Nc1nc2c(ncn2[C@@H]2C[C@H](COP(=O)(O)Oc3ccc(F)cc3)[C@H]2CO)c(=O)[nH]1 | ng·h/mL | 1712 |
| Nc1nc2c(ncn2[C@@H]2C[C@H](COP(=O)(O)Oc3ccccc3)[C@H]2CO)c(=O)[nH]1 | ng·h/mL | 2262 |

Request: Please report the recorded AUC, oral administration for "Nc1nc2c(ncn2[C@@H]2C[C@H](COP(=O)(O)Oc3cccc(Cl)c3)[C@H]2CO)c(=O)[nH]1" .
Response: 1405

Request: Subsequent entry: "Nc1nc2c(ncn2[C@@H]2C[C@H](COP(=O)(O)Oc3ccc(Cl)cc3)[C@H]2CO)c(=O)[nH]1"
Response: 1762

Request: Moving on to "Cc1ccc(OP(=O)(O)OC[C@H]2C[C@@H](n3cnc4c(=O)[nH]c(N)nc43)[C@@H]2CO)cc1"
Response: 1754
